# Tested on: Bacteroides thetiotaomicron ATCC 29741
# assay-details: MIC by CLSI broth microdilution, QC strain
# Assay type: cell-based
# experimental-setup: Bacteroides, ATCC29741
experimental-readout: MIC (µg/mL)
Enter your answer as a number in µg/mL; do not include the unit.

Task item: Given the entry `O=C(N[C@H](CO)[C@H](O)c1ccc([N+](=O)[O-])cc1)C(Cl)Cl` , report its measured MIC.
Reply: 8

Task item: Given the entry `Cc1ncc([N+](=O)[O-])n1CCO` , report its measured MIC.
Reply: 2

Task item: Given the entry `C[C@@H](O)[C@H]1C(=O)N2C(C(=O)O)=C(S[C@@H]3CN[C@H](C(=O)N(C)C)C3)[C@H](C)[C@H]12` , report its measured MIC.
Reply: 0.5

Task item: Given the entry `CO/N=C(\C(=O)N[C@@H]1C(=O)N2C(C(=O)O)=CCS[C@H]12)c1csc(N)n1` , report its measured MIC.
Reply: 16

Task item: Given the entry `COc1c(N2C[C@@H]3CCCN[C@@H]3C2)c(F)cc2c(=O)c(C(=O)O)cn(C3CC3)c12` , report its measured MIC.
Reply: 8
